Test system: TO-3-N3-2 (biotin conjugate)
Test: pull-down binding Z-score (relative to library population); higher = stronger binding
Details: RNA library: Library-2
Returns t if the recorded pull-down binding Z-score is greater than or equal to -0.2, and f otherwise.

>>> answer_label("UGGGAGGUAAGAGCUCUUCACCCUUCA [hsa-mir-197]")
"t"
>>> answer_label("AUCAAAGUGGGGACUCAUGGGGAGAG [hsa-mir-4284]")
"t"
>>> answer_label("GCAGCCUUCUGCCUUUGGCUUUCUGAAGCGAGCUGA [hsa-mir-7158]")
"t"
>>> answer_label("GGAGGAGGAGGAGGAGGA [G4_r(GGA)6]")
"t"
>>> answer_label("AGGAGGGUCC [hsa-mir-3141]")
"t"
>>> answer_label("CUGUGUGAGGACUAGAGGCGG [hsa-mir-4523]")
"t"
>>> answer_label("GCUAACUGUGACCUUAGC [hsa-mir-4729]")
"t"
>>> answer_label("UGAUAGUCAACAAACUGUUGGUCAACAAGACGGCAGUGAGGACAAUCA")
"t"
>>> answer_label("CUCCUCCGCUGCCGCCGGGAGAG [hsa-mir-4785]")
"f"
>>> answer_label("GGAACACUAUAUUAAUCAGGUUUCC [hsa-mir-6509]")
"f"
>>> answer_label("CGGCAUCAUAUGGGUUGCAACUGAGGGAGCCUUGAAUACACCAAAAGAUCACAUUGGCACCCGCAAUCCUGCUAACAAUGCUG [SHAPE_invitro_SARS-CoV-2_Motif_522]")
"t"
>>> answer_label("UAGUACAGGUGAGAUUGUACUG [hsa-mir-3920]")
"f"
>>> answer_label("GUUUCUGCCUUUCCAACAAUUUGGCAGAGAC")
"f"
>>> answer_label("AGCCCUGGGCUCCUCAGCAAACCUACUGGAU [hsa-mir-3174]")
"t"
>>> answer_label("UCACUGCUGCUGGCGCCCUGA [hsa-mir-943]")
"t"
>>> answer_label("GGGAUGAGCCCUGGCUCUGUUUCCUAG [hsa-mir-378h]")
"t"
>>> answer_label("GUUUACGUGAUUCCUGGUUAAUC [hsa-mir-376b]")
"t"
>>> answer_label("CUUUCUGUGACUUUAAAAGUAAG [hsa-mir-302b]")
"f"
>>> answer_label("GAGGGGCAUGCACUGUGUUCACCCUG [hsa-mir-134]")
"t"
>>> answer_label("AUGUACUUGGAUUGGCUGCAAUCAUGCAAUUGUUUUUCAGCUAUUUUGCAGUACAU")
"f"
>>> answer_label("GGAUGGGAGACCUGACCCAUCC [hsa-mir-5195]")
"f"
>>> answer_label("CCUGUUUGAAUAUUUCACCAGAAACAGG [hsa-mir-4433b]")
"t"
>>> answer_label("UCAAACAAGUUUCCAAAUUGUUUGA [hsa-mir-488]")
"f"
>>> answer_label("CUAACAAUCUAGUUGUAAUGGCCUACAUUACAGGUGGUGUUGUUCAG [SHAPE_invivo_SARS-CoV-2_Motif_39]")
"f"
>>> answer_label("AUUGAGAGUUCCUUCUCCUGCUCCUGAU [hsa-mir-6766]")
"f"
>>> answer_label("AAGGCCCUUGGGCACCCCAGGCCUU [hsa-mir-5700]")
"t"
>>> answer_label("UUUCCCAUUAUUUUAAUUGCGAA [hsa-mir-570]")
"f"
>>> answer_label("GUAAGAGAGACUCUCGCUUCCUGC [hsa-mir-874]")
"f"
>>> answer_label("UUUCUGAAUUUGUGAGA [hsa-mir-4463]")
"t"
>>> answer_label("GCCAUUUGUCAUGAUGGAAAAGCACACUUUCCUCGUGAAGGUGUCUUUGUUUCAAAUGGC")
"f"
>>> answer_label("AAGGAUGCUACUCCUU")
"f"
>>> answer_label("ACCAAAACACUCAUCGCGG [hsa-mir-1260a]")
"t"
>>> answer_label("CCCACCUCCAGCAUUGGG [hsa-mir-1267]")
"f"
>>> answer_label("UAUGCCAUUAAAAGUAAUGGUAAA [hsa-mir-548aj-1]")
"f"
>>> answer_label("GCUCUCUGAUGC [IAV_invivo_NP_5_Motif_10+IAV_invivo_NP_5_Motif_10]")
"f"
>>> answer_label("CAAUGUGUGAUAUCAGACAACUACUAUUUGUAGUUGAAGUUGUUGAUAAGUACUUUG [DMSMaPseq_invitro_SARS-CoV-2_Motif_268]")
"f"
>>> answer_label("CUUUUUGCUGAUGGAGGGUCUUGCCUCCAUGGGGAUGGCUG [hsa-mir-4502]")
"t"
>>> answer_label("CCGGGCGCUGCUCUGACCCCUCGU [hsa-mir-187]")
"t"
>>> answer_label("GUACUUAAUGAGAAGUGC [SHAPE_invivo_SARS-CoV-2_Motif_56]")
"t"
>>> answer_label("UGUGCUUGUGAAAUUGUCGGUGGACAAAUUGUCACCUGUGCA")
"f"
>>> answer_label("ACCUUUAGUACCUUUCUGGAUAACAAUUGCUUAUAUCAUUUGUAUUUCCACAAAGCAUUUCUAUUGGU")
"f"
>>> answer_label("CUUGGCACCUUUGGCCUUAG [hsa-mir-4540]")
"t"
>>> answer_label("UCCAAACGCAAGCUUCGAUAAUUUUAAGUUUGUAUGUGA [SHAPE_invivo_SARS-CoV-2_Motif_125]")
"t"

###

Test system: TO-3-N3-2 (biotin conjugate)
Assay: pull-down binding Z-score (relative to library population); higher = stronger binding
Conditions: RNA library: Library-2
Metric Name: pull-down binding Z-score

>>> number("CCGACUCGGGCUCUGGAGCAGUC [hsa-mir-152]")
0.274
>>> number("UGGUCAGGCGGCU [hsa-mir-3917]")
-0.061
>>> number("GCCCCAGGGCAGGGGC [hsa-mir-4515]")
-0.473
>>> number("AUAAAGAAAUGUAUCUAAAGUUGCGUAGUGAUGUGCUAUUACCUCUUACGCAAUAUAAUAGAUACUUAGCUCUUUAU")
-0.197
>>> number("CCAGUAUCUGAAUUACUUACACCACUGG [SHAPE_invivo_SARS-CoV-2_Motif_58]")
0.119
>>> number("CCAUGCUGUUUAAGCCUAGCAUAG [hsa-mir-4423]")
-0.16
>>> number("AAUCCCAGCACUUUGGGAG [hsa-mir-3929]")
-0.0338
>>> number("UUUCUCUUGUCCAAAGGAAAAGAAG [hsa-mir-524]")
-0.376
>>> number("UUAACCUAAAAUGAGAAGGCUAA [hsa-mir-633]")
-0.223
>>> number("GUUGUUUUUAGAUAACUAAAUCGACAAC [hsa-mir-7-1]")
0.0396
>>> number("AACUCCUGCGAGUCCCUGGAGUU [hsa-mir-1258]")
-0.146
>>> number("CAGCCUGUUGUCAAGGCUG [hsa-mir-3130-1]")
0.129
>>> number("AGAAGAACU [hsa-mir-378j]")
-0.0957
>>> number("GGAAUUGUGUUAAUUGUGAUACAUUCU [SHAPE_invitro_SARS-CoV-2_Motif_150]")
-0.388
>>> number("AAUAGAAGAAUUAUUCUAUU [SHAPE_invitro_SARS-CoV-2_Motif_349]")
-0.687
>>> number("GAUUCUGAUUCAGGGACCAAGAUUC [hsa-mir-544a]")
0.354
>>> number("UGAGUGAUGACUCAGGCGACUCCA [hsa-mir-338]")
-0.0635
>>> number("UUCUAGUCCCUAUUAGACUAGAA [hsa-mir-5681a]")
-0.506
>>> number("GUGGUUAUACCUACUAAAAAGGCUGGUGGCACUACUGAAAUGCUAGCGAAAGCUUUGAGAAAAGUGCCAACAGACAAUUAUAUAACCAC")
0.156
>>> number("CGGAGCAGUCACGUUGACGGAAUCCUCCG [hsa-mir-3183]")
-0.255
>>> number("UUAAGUGACACACUUAA")
-0.663
>>> number("CUGGGAAACUGUUAAAAUUCAGUGGUCCCAG [IAV_invivo_PB2_1_Motif_27+IAV_invivo_PB2_1_Motif_27]")
-0.0981
>>> number("GUCUUGGGGUGGGGGAUCAAGAC [hsa-mir-642a]")
2.9
>>> number("UAAAGAACUUUAAGUCAGUUCUUUA")
-0.501
>>> number("GUGACGCCGCGAAGUGCAC [hsa-mir-3147]")
0.172
>>> number("CAUUCACAUAGACUAUAAUUGAAUG [hsa-mir-652]")
-0.353
>>> number("AGUGCCAACAGACAAUUAUAUAACCACUUACCCGGGUCAGGGUUUAAAUGGUUACACU")
-0.123
>>> number("AACUCUGUUGAAUAUAAAUUGGAAUU [hsa-mir-367]")
0.00577
>>> number("CUUUUAGAGUAAUUGUGAAACUGUUUUUCAAAG [hsa-mir-562]")
-0.0695
>>> number("UAGGCUGUGCAGGUCCCAAUGGGCCUA [hsa-mir-26a-1]")
-0.0454
>>> number("CUGCCUAUAUGGAAG")
-0.364
>>> number("GUUCGCUUAAUUUAUGACGAAUC [hsa-mir-487a]")
-0.215
>>> number("UAGUCUAAUAGGGACUA [hsa-mir-5681b]")
-0.0587
>>> number("GACUUGCUUUAGCACUCAAUUUGCUUUUGCUUGUC")
-0.00573
>>> number("CGUUCGCUUUAUUUAUGGCGCACA [hsa-mir-323a]")
-0.271
>>> number("CGGUGGUCCCUCCCG [hsa-mir-3687-1_3687-2]")
-0.108
>>> number("GGGUCAGUGGCAGAGCCAGGCAGAUGCUGACCC [hsa-mir-6832]")
0.267
>>> number("CAUCGUUGAUAGUG [SHAPE_invitro_SARS-CoV-2_Motif_152]")
0.263
>>> number("CGGUCGGAUAAUCACAUGACGAG [hsa-mir-2114]")
-0.221
>>> number("ACUACUGUGCUCUGAGAAGCAGU [hsa-mir-301b]")
-0.255
>>> number("GUGGACAGAGGCAAAACUCUAACUUC [hsa-mir-6078]")
-0.41
>>> number("CCAUGGCAGAUUCCAACGGUACUAUUACCGUUGAAGAGCUUAAAAAGCUCCUUGAACAAUGGAACCUAGUAAUAGGUUUCCUAUUCCUUACAUGG [DMSMaPseq_invitro_SARS-CoV-2_Multi_81_ComplexLevel_1]")
-0.516
>>> number("CCGAAUACCAUAAUGAAUCUGGCUUGAAAACCAUUCUUCGUAAGGGUGGUCGCACUAUUGCCUUUGG [DMSMaPseq_invitro_SARS-CoV-2_Multi_5_ComplexLevel_1]")
-0.063
>>> number("UCCUCAGUUUUACAUUCAACUCAGGA")
-0.225
>>> number("UUUGUCAUUUAAAAGUAAUGGCAAA [hsa-mir-548ae-2]")
0.00258
>>> number("UAGGCACGGCACUUGUGAAAGAUCAGAAGCUGGUGUUUG")
-0.246

Just for reference, the supplement of paper PMC11865577 is where these values come from.
